Molecular target: testis-associated actin remodeling kinase 2 (Homo sapiens)
Construct: human cell/tissue protein extract (a mixture of HEK-293, K-562, Hep G2 , and placental cells); endogenous in cells
Sequence (Q96S53 whole entry): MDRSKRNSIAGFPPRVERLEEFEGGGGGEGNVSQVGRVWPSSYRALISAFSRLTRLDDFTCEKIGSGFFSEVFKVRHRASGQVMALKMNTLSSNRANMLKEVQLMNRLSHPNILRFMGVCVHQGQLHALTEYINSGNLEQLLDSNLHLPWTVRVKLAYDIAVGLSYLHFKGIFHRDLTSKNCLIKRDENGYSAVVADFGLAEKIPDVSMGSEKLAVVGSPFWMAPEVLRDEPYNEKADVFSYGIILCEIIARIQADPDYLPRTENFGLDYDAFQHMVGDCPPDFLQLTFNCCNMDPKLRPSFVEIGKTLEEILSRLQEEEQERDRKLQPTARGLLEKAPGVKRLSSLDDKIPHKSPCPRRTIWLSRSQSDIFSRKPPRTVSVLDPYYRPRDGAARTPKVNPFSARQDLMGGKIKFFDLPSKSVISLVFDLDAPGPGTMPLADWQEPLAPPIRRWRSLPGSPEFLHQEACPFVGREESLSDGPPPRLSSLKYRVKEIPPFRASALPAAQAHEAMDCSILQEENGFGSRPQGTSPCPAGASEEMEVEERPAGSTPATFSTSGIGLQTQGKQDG
Assay: Chemoproteomics in human mixed tissue extracts
Details: read-out: Kdapp
property.name: Kd (nM)
Expressed in nM, but write only the number.

Prompt line: Quick one: Kd for CC(C)(CN)c1nc(-c2ccc(Cl)c(O)c2)c(-c2ccncc2)[nH]1 ?
Response line: 25

---

Target: calcium-dependent protein kinase 1 (CDPK1) (PF3D7_0217500) (Plasmodium falciparum)
Construct: endogenous in cells; host or cells: P. falciparum asexual blood-stage parasites (trophozoite stage)
Sequence (P62344 whole entry): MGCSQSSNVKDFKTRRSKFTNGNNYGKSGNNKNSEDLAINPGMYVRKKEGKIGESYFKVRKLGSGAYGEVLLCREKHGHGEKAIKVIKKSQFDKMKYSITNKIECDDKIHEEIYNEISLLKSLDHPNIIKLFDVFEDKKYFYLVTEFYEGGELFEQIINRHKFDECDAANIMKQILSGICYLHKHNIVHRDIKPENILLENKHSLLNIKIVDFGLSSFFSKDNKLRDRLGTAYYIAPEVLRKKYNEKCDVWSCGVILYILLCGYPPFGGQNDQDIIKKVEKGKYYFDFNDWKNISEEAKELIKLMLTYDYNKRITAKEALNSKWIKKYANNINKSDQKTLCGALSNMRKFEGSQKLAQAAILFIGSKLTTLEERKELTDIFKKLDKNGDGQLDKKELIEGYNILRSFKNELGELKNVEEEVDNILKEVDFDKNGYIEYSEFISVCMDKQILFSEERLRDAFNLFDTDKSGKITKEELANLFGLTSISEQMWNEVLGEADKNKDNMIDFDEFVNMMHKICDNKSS
Assay: Competitive chemoproteomics in Pf lysates (Kinobeads / bead-immobilized compound)
Type: binding
Settings: Kinobeads; read-out: Kdapp, CDPK1
property.name: pKd
Please keep in mind that pKd is minus log10 of the molar concentration; only the number is needed.

Prompt line: Quick one: pKd for CC(C)(CN)c1nc(-c2ccc(Cl)c(O)c2)c(-c2ccncc2)[nH]1 ?
Response line: 6.67

---

Test system: URP cKD line
Assay: Compound susceptibility assay using cKD lines (72 h, Renilla luciferase)
Assay type: cell-based, Plasmodium falciparum
Settings: Plasmodium falciparum, KD, [aTc] used 0.0
property.name: IC50 (nM)
Expressed in nM, but write only the number.

Prompt line: Quick one: IC50 for CC(C)(CN)c1nc(-c2ccc(Cl)c(O)c2)c(-c2ccncc2)[nH]1 ?
Response line: 42.4

---

System: 3D7-A10 parasites (rings, trophozoites, schizonts)
Assay: ABS stage-specific 8-h exposure assay on highly synchronized parasites
Assay type: cell-based, Plasmodium falciparum
Conditions: Plasmodium falciparum, 3D7, 8 h, 3D7-A10, 8 h exposure; read-out: Mean IC50, early ring stage activity
property.name: IC50 (µM)
Expressed in µM, but write only the number.

Prompt line: Give IC50 (3D7-A10 parasites (rings, trophozoites, schizonts)) of the following compound: CC(C)(CN)c1nc(-c2ccc(Cl)c(O)c2)c(-c2ccncc2)[nH]1 [MMV030084]
Response line: 5.25

---

Molecular target: transforming growth factor β receptor 1 (Homo sapiens, UniProt P36897)
Construct: human cell/tissue protein extract (a mixture of HEK-293, K-562, Hep G2 , and placental cells); endogenous in cells
Sequence (P36897 34-503): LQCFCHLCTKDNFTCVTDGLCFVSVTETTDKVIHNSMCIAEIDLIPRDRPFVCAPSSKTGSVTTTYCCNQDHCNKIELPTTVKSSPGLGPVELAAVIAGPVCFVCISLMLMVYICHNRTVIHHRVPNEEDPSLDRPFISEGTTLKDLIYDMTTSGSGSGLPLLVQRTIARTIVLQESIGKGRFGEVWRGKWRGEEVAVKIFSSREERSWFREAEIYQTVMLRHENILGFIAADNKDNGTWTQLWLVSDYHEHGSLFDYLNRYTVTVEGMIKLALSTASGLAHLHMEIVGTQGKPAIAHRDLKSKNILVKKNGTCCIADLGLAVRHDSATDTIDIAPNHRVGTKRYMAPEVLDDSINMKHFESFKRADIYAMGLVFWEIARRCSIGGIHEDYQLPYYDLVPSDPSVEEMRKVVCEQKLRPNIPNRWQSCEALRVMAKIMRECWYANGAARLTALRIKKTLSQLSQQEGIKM
Assay: Chemoproteomics in human mixed tissue extracts
Conditions: read-out: Kdapp
property.name: Kd (nM)
Expressed in nM, but write only the number.

Prompt line: Quick one: Kd for CC(C)(CN)c1nc(-c2ccc(Cl)c(O)c2)c(-c2ccncc2)[nH]1 [MMV030084] ?
Response line: 20

---

System: 3D7-A10 parasites (rings, trophozoites, schizonts)
Assay: ABS stage-specific 8-h exposure assay on highly synchronized parasites
Format: cell-based, Plasmodium falciparum
Conditions: Plasmodium falciparum, 3D7, 8 h, 3D7-A10, 8 h exposure, early and late trophozoites averaged; read-out: Average IC50, trophozoites
property.name: pIC50
Please keep in mind that pIC50 is minus log10 of the molar concentration; only the number is needed.

Prompt line: Quick one: pIC50 for CC(C)(CN)c1nc(-c2ccc(Cl)c(O)c2)c(-c2ccncc2)[nH]1 [MMV030084] ?
Response line: 5.49

---

Tested on: ed. Dd2-B2 TKL3KO
Experiment: 72-h ABS assay, TKL3 knockout line
Assay type: cell-based
Conditions: Plasmodium falciparum, parent Dd2-B2 wild-type
Description: Synchronicity was achieved using three rounds of sorbitol treatment on early rings, spaced 48 h apart, followed by magnetic purification of segmented schizonts following the final sorbitol treatment. Parasites were highly synchronous to within a 3 h window of development. Assays were repeated on at least three independent occasions (each with technical duplicates) and statistical significance was assessed using Mann Whitney U tests. […]
property.name: IC50 (nM)
Expressed in nM, but write only the number.

Prompt line: Quick one: IC50 for CC(C)(CN)c1nc(-c2ccc(Cl)c(O)c2)c(-c2ccncc2)[nH]1 ?
Response line: 376

# credit: paper PMC7369637
